- assay protocol: RP, Phenomenex Kinetex C18, 150 × 2.1 mm, 1.7 µm, 30 °C, 0.3 mL/min, estimated dead time 1.1 min; A: water + 0.1% formic acid, pH 3; B: acetonitrile + 0.1% formic acid, pH 3; gradient (min/%B) 0/2 14/100 17/100 17.1/2 25/2
- measurement setup: stereoisomer not certain
readout type: LC retention time (min)

Take a look at these entries with their results.
>>> observed("O=C(O)C(O)c1ccc(O)c(O)c1 (stereo not given) [3,4 DIHYDROXYMANDELATE]")
1.7
>>> observed("CC(=O)NC(CC(C)C)C(=O)O (stereo not given) [N-ACETYLLEUCINE]")
5.08

(A) CC(O)(CC(=O)O)CC(=O)O [3-HYDROXYMETHYLGLUTARATE]
(B) Oc1ccccc1O [PYROCATECHOL]
Between A and B , which one shows the larger LC retention time value? Please indicate the selected item by its label.
B

(1) Nc1cc([O-])cc(C(=O)O)c1 [3-AMINO-5-HYDROXYBENZOATE]
(2) NC(Cc1ccccc1)C(=O)O (stereo not given) [PHENYLALANINE]
Hi team, can someone confirm which has the larger LC retention time: 1 or 2 ? Thanks. State your choice using its label.
2

(I) OCC(O)c1ccc(O)c(O)c1 (stereo not given) [3,4-DIHYDROXYPHENYLGLYCOL]
(II) CC(=O)NC(CS)C(=O)O (stereo not given) [N-ACETYLCYSTEINE]
Could you kindly indicate whether I or II has the higher LC retention time value? Response format: the label of the selected entry.
II
(II: 2.62 min, I: 1.82 min)

Hello, the source for this data is the RepoRT retention time repository (doi:10.1016/j.chroma.2019.01.023), in case you need it.
